- System: barnyardgrass (Echinochloa crus-galli)
- measurement-notes: Test A postemergence
- Format: in vivo
- condition-info: 500 g ai/ha, postemergence; visual injury, 0 to 100 scale (0 no effect, 100 complete control), approx. 10 d
readout-type: Plant response rating, Barnyardgrass
Give a plain numeric answer without units written out.

Any idea what Plant response rating, Barnyardgrass was measured for COc1cccc(NC(=O)C2C(=O)NCC2c2cccc(C(F)(F)F)c2)c1F (racemic) ?
70

What does the record list as Plant response rating, Barnyardgrass for Cc1ccc(C2CNC(=O)C2C(=O)Nc2cccc(F)c2F)cc1C(F)(F)F (stereo not shown) ?
90

For the compound shown here, CN1CC(c2cc(F)cc(F)c2)C(C(=O)Nc2ccccc2C(F)(F)F)C1=O (stereo not shown) , give the reported Plant response rating, Barnyardgrass.
90

Which Plant response rating, Barnyardgrass is reported for this compound? O=C1NCC(c2cccc(Br)c2)C1C(=O)Nc1cccc(F)c1F (racemic)
90

* * *

What plant injury at 500 g/ha was measured for each of the following?
- Test system: wheat (Triticum aestivum)
- measurement-notes: Test A postemergence
- Type: in vivo
- condition-info: Triticum aestivum, post-emergence, 240 h, 500 g ai/ha, postemergence; visual injury, 0 to 100 scale (0 no effect, 100 complete control), approx. 10 d; read-out: Plant response rating, Wheat
- Text: […]

Form field: reported plant injury at 500 g/ha of O=C(Nc1ccccc1F)[C@H]1C(=O)N(C2CC2)CC[C@@H]1c1ccccc1 [Compound 1031]
0%

I would be grateful if you could share the reported plant injury at 500 g/ha for O=C1NC[C@H](c2ccc3c(c2)OCO3)[C@H]1C(=O)Nc1ccc(F)cc1F [Compound 1026] .
30%

Could you share which plant injury at 500 g/ha value was measured for Cc1ccc([C@H]2CN(C)C(=O)[C@@H]2C(=O)Nc2cccc(F)c2C)cc1Cl [Compound 1014] ?
80%

If you can, please state the reported plant injury at 500 g/ha value of Cc1ccc([C@H]2CNC(=O)[C@@H]2C(=O)Nc2cccc(F)c2C)cc1C [Compound 1035] .
70%

* * *

- System: giant foxtail (Setaria faberii)
- measurement-notes: Test A preemergence
- Type: in vivo
- condition-info: Setaria faberi, pre-emergence, 240 h, 125 g ai/ha, preemergence; 0 to 100 scale where 0 is no effect and 100 is complete control; read-out: Foxtail, Giant plant response rating
Kindly state pest or weed control at 125 g/ha for each of the entries shown.
Quick note: give the figure in %, leave out the unit.

So what's the measured pest or weed control at 125 g/ha for this one? Cc1cc(F)cc([C@H]2CN(C)C(=O)[C@@H]2C(=O)Nc2ccccc2F)c1 [Compound 850]
90

What pest or weed control at 125 g/ha value was documented for this compound, Cc1cc([C@H]2CN(C)C(=O)[C@@H]2C(=O)Nc2ccccc2F)ccc1Cl [Compound 928] ?
90

# lookup: pest or weed control at 125 g/ha of Cc1cc([C@H]2CN(C)C(=O)[C@@H]2C(=O)Nc2ccc(F)cc2F)ccc1Cl [Compound 930]
90

Record request: pest or weed control at 125 g/ha value, item CN1C[C@H](c2cccc(F)c2)[C@@H](C(=O)Nc2ccccc2C(F)(F)F)C1=O [Compound 823]
100

// lookup pest or weed control at 125 g/ha for CCOc1ccc([C@H]2CNC(=O)[C@@H]2C(=O)Nc2ccc(F)cc2F)cc1 [Compound 908]
30

Could you share which pest or weed control at 125 g/ha value was measured for Cc1cc(C)cc([C@H]2CNC(=O)[C@@H]2C(=O)Nc2cccc(F)c2F)c1 [Compound 889] ?
90

Could you tell me which pest or weed control at 125 g/ha is on file for CCOc1ccc([C@H]2CN(C)C(=O)[C@@H]2C(=O)Nc2ccc(F)cc2F)cc1 [Compound 905] ?
90

Could you share which pest or weed control at 125 g/ha value was measured for CN1C[C@H](c2cc(F)c(F)c(F)c2)[C@@H](C(=O)Nc2ccccc2F)C1=O [Compound 878] ?
100

* * *

- Test system: barnyardgrass (Echinochloa crus-galli)
- measurement-notes: Test A postemergence
- Format: in vivo
- condition-info: 500 g ai/ha, postemergence; 0 to 100 scale, 0 no effect, 100 complete control
readout-type: Plant response rating, Barnyardgrass
Reply briefly: the number, and no unit.

Sample O=C1NCC(c2ccc(Br)cc2)C1C(=O)Nc1ccc(F)cc1F (stereo not drawn) — what was its Plant response rating, Barnyardgrass?
80

Looking for the measured Plant response rating, Barnyardgrass of Cc1ccc(C2CNC(=O)C2C(=O)Nc2ccccc2F)cc1F (racemic) , can you help?
90

For the compound COc1c(F)ccc(NC(=O)C2C(=O)NCC2c2cccc(C(F)(F)F)c2)c1F (racemic) , what Plant response rating, Barnyardgrass is on record?
80

// Plant response rating, Barnyardgrass lookup, key: Cc1cccc(C2CNC(=O)C2C(=O)Nc2cccc(F)c2F)c1 (racemic)
80

Fill in the blank: the reported Plant response rating, Barnyardgrass of CN1CC(c2ccc(C(F)(F)F)c(F)c2)C(C(=O)Nc2ccccc2S(C)(=O)=O)C1=O (stereo not drawn) is ____.
90

Find the recorded Plant response rating, Barnyardgrass belonging to Cc1cc(NC(=O)C2C(=O)NCC2c2ccc(F)c(F)c2)ccc1F (stereo not drawn) and report it.
0

// returns reported Plant response rating, Barnyardgrass for input O=C1NCC(c2ccc(Br)cc2)C1C(=O)Nc1cccc(F)c1 (stereo not drawn)
80

Returns the measured Plant response rating, Barnyardgrass for the input compound. Input: COc1cccc(C2CNC(=O)C2C(=O)Nc2cccc(F)c2F)c1 (racemic)
90

Please give the measured Plant response rating, Barnyardgrass for this compound: Cc1ccc(C2CN(C)C(=O)C2C(=O)Nc2cccc(F)c2F)cc1F (stereo not drawn)
90

* * *

- Test system: ragweed (common ragweed, Ambrosia elatior)
- measurement-notes: Test A preemergence
- Assay type: in vivo
- condition-info: Ambrosia artemisiifolia, pre-emergence, 240 h, Preemergence, 31 g ai/ha; 0 to 100 scale (0 no effect, 100 complete control); read-out: Plant response rating, Ragweed
readout-type: pest or weed control at 31 g/ha

// lookup pest or weed control at 31 g/ha for CSc1ccccc1NC(=O)[C@H]1C(=O)N(C)C[C@@H]1c1ccc(C(F)F)cc1
0%

Data request, read-out pest or weed control at 31 g/ha, for CN1C[C@H](c2ccc(C(F)F)cc2)[C@@H](C(=O)Nc2ccccc2F)C1=O
30%

Dear colleague, I am looking for the recorded pest or weed control at 31 g/ha of the following molecule: CN1CC[C@H](c2cccc(OC(F)(F)F)c2)[C@@H](C(=O)Nc2cccc(Cl)c2F)C1=O
0%

Need pest or weed control at 31 g/ha of O=C(Nc1cccc(F)c1F)[C@H]1C(=O)N(OCc2ccccc2)CC[C@@H]1c1cccc(Cl)c1 , thanks.
0%

Would you kindly share the measured pest or weed control at 31 g/ha for CC(C)Oc1cc([C@H]2CN(C)C(=O)[C@@H]2C(=O)Nc2cccc(F)c2F)cc(C(F)(F)F)c1 ?
0%

* * *

- Test system: ragweed (common ragweed, Ambrosia elatior)
- measurement-notes: Test A preemergence
- Format: in vivo
- condition-info: Ambrosia artemisiifolia, pre-emergence, 240 h, 125 g ai/ha, preemergence; 0 to 100 scale where 0 is no effect and 100 is complete control; read-out: Ragweed plant response rating
readout-type: pest or weed control at 125 g/ha (%)
The reply should contain only the number, in %.

// map CN1CC[C@H](c2cccc(Cl)c2)[C@@H](C(=O)Nc2cccc(F)c2F)C1=O to recorded pest or weed control at 125 g/ha (system: ragweed (common ragweed, Ambrosia elatior))
0

For ragweed (common ragweed, Ambrosia elatior), provide pest or weed control at 125 g/ha of COc1cc([C@H]2CN(C)C(=O)[C@@H]2C(=O)Nc2cccc(F)c2F)cc(C(F)(F)F)c1 please.
0

What reported pest or weed control at 125 g/ha corresponds to CSc1ccccc1NC(=O)[C@H]1C(=O)NC[C@@H]1c1cccc2c1OC(F)(F)O2 on ragweed (common ragweed, Ambrosia elatior)?
0

Provide value of pest or weed control at 125 g/ha for this record tested with ragweed (common ragweed, Ambrosia elatior): CS(=O)(=O)c1ccccc1NC(=O)[C@H]1C(=O)NC[C@@H]1c1cc(F)c(C(F)(F)F)c(F)c1
80

* * *

- System: ragweed (common ragweed, Ambrosia elatior)
- measurement-notes: Test A preemergence
- Format: in vivo
- condition-info: Ambrosia artemisiifolia, pre-emergence, 240 h, 500 g ai/ha, Preemergence, visual injury vs untreated controls after approximately 10 d; read-out: Ragweed plant response rating (0 to 100 scale where 0 is no effect and 100 is complete control)
- Text: […]
Could you please report measured pest or weed control at 500 g/ha for the items listed next?
A number alone suffices; assume %.

Quick check: pest or weed control at 500 g/ha on ragweed (common ragweed, Ambrosia elatior), item CS(=O)(=O)c1ccccc1NC(=O)[C@H]1C(=O)NC[C@@H]1c1ccc(OC(F)F)cc1 ?
70

Enter reported pest or weed control at 500 g/ha observed with ragweed (common ragweed, Ambrosia elatior) for CC(C)c1cccc([C@H]2CN(C)C(=O)[C@@H]2C(=O)Nc2ccccc2F)c1
20

Checklist item: pest or weed control at 500 g/ha tested on ragweed (common ragweed, Ambrosia elatior), entry CN1C[C@H](c2cccc(F)c2)[C@@H](C(=O)Nc2ccccc2C(F)(F)F)C1=O , value?
40

Short answer please: pest or weed control at 500 g/ha, ragweed (common ragweed, Ambrosia elatior), entry COc1ccccc1NC(=O)[C@H]1C(=O)N(C)C[C@@H]1c1ccc(C(F)(F)F)cc1
30
